- TEST_SUMMARY: Aqueous solubility, pION method
- TEST_PARAMETERS: pH 7.4
PARAMETER: solubility (µg/mL)
Answer with a number only, understood to be in µg/mL.

For reference, reported solubility for NCCOCCOCCOCCOCCOCCOCCC(=O)N1CCC(c2ccc(-c3cc(C(=O)O)cc4cc(-c5ccc(C(F)(F)F)cc5)ccc34)cc2)CC1 [Compound 12] stands at 7.16

----------
- TESTED_SYSTEM: CB1 cannabinoid receptor (Homo sapiens)
- Sequence (P21554 whole entry): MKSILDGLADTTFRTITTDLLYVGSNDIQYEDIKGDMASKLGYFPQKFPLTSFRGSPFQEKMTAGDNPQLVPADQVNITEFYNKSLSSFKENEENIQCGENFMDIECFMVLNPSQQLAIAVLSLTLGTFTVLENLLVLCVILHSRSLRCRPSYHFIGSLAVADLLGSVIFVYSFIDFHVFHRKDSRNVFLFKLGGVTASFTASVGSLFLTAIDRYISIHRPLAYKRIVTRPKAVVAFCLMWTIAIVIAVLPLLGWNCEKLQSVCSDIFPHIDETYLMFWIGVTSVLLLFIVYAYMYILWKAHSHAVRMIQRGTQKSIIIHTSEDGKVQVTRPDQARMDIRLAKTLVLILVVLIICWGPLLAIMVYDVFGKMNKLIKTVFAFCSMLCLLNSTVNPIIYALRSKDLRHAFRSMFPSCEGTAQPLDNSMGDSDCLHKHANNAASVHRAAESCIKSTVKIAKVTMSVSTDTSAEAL
- TEST_SUMMARY: PDSP functional agonist/antagonist assay, CB1
PARAMETER: IC50

For reference, reported IC50 for O=C(O)c1cc(-c2ccc(C3CCNCC3)cc2)c2ccc(-c3ccc(C(F)(F)F)cc3)cc2c1 [Compound 1, reference compound] stands at > 10 µM

For reference, reported IC50 for O=C(O)c1cc(-c2ccc(C3CCNCC3)cc2)cc(-c2cn(-c3ccc(C(F)(F)F)cc3)nn2)c1 stands at > 10 µM
